Target: T1, Human TNFa N-his trimers (His-tagged TNF, produced at ESBATech) (human, UniProt P01375 77-233)
T1 construct: Captured as trimers on a Ni-NTA sensor chip by the N-terminal His tags in the Biacore assay of the general methods; also called human TNFα; human TNF alpha; not shown: N-terminal His tag
T1 sequence (P01375 77-233 limits assumed): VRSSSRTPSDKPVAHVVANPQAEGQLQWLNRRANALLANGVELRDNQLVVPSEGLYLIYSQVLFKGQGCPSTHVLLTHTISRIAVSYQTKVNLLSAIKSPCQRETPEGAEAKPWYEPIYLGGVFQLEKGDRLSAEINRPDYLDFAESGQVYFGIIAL
Protocol Notes: SPR (BIAcore T100), His-tagged human TNF captured on NTA chip, scFv as analyte
# maps each entry to its pKd
Expect pKd as a plain number equal to -log10 of the molar concentration.

{"Binder": "EP43_min (scFv, scFv NH2-VL-(GGGGS)4-VH-COOH; also called 705) scFv: EIVMTQSPSTLSASVGDRVIITCQASQSISDWLAWYQQKPGKAPKLLIYGASRLASGVPSRFSGSGSGAEFTLTISSLQPDDFATYYCQQGWSDSYVDNLFGQGTKLTVLGGGGGSGGGGSGGGGSGGGGSEVQLVESGGGLVQPGGSLRLSCAASGFSLSSGAMSWVRQAPGKGLEWVSVIISSGATYYASWAKGRFTISRDNSKNTLYLQMNSLRAEDTAVYYCAKGGPDDSNSMGTFDPWGQGTLVTVSS", "pKd": 5.26}
{"Binder": "EP42_min (scFv, scFv NH2-VL-(GGGGS)4-VH-COOH; also called 1076) scFv: EIVMTQSPSTLSASVGDRVIITCQSTESVYKNNYLAWYQQKPGKAPKLLIYDASTLASGVPSRFSGSGSGAEFTLTISSLQPDDFATYYCAGYYRSGFGTANGSFGQGTKLTVLGGGGGSGGGGSGGGGSGGGGSEVQLVESGGGLVQPGGSLRLSCAASGFTFRNDAISWVRQAPGKGLEWVSYISDWGIKYYASWVKGRFTISRDNSKNTLYLQMNSLRAEDTAVYYCAKGAPGAGDNGIWGQGTLVTVSS", "pKd": 7.23}

Query: Value lookup for pKd; key = EP35_max (scFv, scFv NH2-VL-(GGGGS)4-VH-COOH; also called 1089) scFv: EIVMTQSPSTLSASVGDRVIITCQASQSISNLLAWYQQKPGKAPKLLIVAASKLASGVPSRFSGSGSGTEFTLTISSLQPDDFATYYCQQGWSHTNVDNTFGQGTKLTVLGGGGGSGGGGSGGGGSGGGGSEVQLVESGGGSVQPGGSLRLSCTASGFSFSVGYWICWVRQAPGKGLEWVACIDAGTSGGTYYATWAKGRFTISKDTSKNTVYLQMNSLRAEDTATYYCARGVSSNGYYFKLWGQGTTVTVSS
Result: 9.71

The origin of these recorded values is patent US20140193400A1.
